Target: T1, human PD-1 dimer (human PD-1-mFc or human PD-1-hFc) (human, UniProt Q15116 25-170)
T1 construct: also called hPD-1-mFc; hPD1-hFc
T1 sequence (Q15116 25-170 C93S): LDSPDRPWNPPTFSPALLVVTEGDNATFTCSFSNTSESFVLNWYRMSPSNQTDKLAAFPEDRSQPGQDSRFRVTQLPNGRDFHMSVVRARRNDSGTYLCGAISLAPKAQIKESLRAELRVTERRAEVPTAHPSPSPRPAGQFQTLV
Test: SPR, mAb captured, 37C;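 further: Real-time Biacore biosensor, PD-1 dimer flowed over anti-PD-1 antibody surface, rate constants fitted to a 1:1 model, KD derived as kd/ka and t½ as ln2/(60·kd)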
value type: koff (s⁻¹)
Unit s⁻¹ implied. Number only.

Consider the binder H2aM7791N (antibody, mouse IgG2a, V domains shown, Human variable regions, mouse IgG2a Fc; also called H2M7791N) VH: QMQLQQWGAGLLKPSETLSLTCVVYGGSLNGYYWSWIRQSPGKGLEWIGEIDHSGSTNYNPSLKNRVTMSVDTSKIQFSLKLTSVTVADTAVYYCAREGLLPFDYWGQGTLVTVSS VL: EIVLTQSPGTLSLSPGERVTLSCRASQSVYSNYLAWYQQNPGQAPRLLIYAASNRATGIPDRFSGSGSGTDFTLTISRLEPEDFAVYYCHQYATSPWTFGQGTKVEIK . State its measured koff.
0.000179
